# measured target: UniProt:Q9UM73
# Sequence (Q9UM73 19-1620, species assumed): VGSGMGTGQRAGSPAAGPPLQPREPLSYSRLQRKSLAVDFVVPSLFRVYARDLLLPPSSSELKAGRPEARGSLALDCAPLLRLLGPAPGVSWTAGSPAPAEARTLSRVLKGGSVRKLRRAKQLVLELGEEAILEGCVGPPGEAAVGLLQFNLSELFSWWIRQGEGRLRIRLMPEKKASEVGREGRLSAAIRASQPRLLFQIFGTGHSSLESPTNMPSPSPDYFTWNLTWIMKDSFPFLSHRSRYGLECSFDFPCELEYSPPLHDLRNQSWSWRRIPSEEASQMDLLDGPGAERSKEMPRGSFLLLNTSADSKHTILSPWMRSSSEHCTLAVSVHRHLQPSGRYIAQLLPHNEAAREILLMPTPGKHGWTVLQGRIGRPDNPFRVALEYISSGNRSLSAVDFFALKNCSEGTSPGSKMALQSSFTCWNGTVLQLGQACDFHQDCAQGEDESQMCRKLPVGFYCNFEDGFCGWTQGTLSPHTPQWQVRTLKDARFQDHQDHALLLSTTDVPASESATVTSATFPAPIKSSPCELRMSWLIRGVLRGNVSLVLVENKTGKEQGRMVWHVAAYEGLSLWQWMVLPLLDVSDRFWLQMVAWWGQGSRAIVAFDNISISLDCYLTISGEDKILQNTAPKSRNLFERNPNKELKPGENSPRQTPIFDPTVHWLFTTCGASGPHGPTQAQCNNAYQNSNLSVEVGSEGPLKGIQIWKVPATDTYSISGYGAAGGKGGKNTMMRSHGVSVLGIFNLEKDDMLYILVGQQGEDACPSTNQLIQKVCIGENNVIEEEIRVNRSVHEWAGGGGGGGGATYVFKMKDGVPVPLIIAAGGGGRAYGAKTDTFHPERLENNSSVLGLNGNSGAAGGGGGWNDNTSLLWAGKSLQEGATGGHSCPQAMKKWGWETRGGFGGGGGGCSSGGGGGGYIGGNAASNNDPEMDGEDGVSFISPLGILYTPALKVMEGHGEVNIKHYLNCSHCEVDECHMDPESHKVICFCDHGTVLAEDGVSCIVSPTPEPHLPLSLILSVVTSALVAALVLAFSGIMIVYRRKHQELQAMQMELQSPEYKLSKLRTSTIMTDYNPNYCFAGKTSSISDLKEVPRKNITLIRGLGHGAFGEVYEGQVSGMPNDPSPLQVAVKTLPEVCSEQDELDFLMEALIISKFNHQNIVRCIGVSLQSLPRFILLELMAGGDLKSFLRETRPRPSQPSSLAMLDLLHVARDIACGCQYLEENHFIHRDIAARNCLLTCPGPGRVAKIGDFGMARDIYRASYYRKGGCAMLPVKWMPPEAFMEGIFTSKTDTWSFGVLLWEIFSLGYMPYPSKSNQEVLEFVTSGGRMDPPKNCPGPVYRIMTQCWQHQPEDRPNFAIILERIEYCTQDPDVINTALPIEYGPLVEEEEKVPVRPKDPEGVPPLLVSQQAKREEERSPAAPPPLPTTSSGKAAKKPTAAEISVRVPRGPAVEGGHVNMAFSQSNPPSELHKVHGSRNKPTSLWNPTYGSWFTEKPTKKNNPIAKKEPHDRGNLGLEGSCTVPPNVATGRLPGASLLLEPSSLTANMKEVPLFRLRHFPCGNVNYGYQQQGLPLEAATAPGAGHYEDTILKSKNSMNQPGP
measured parameter: IC50

Q: Would you kindly share the measured IC50 for COc1cc(F)cc(-c2ccc3c(NC(=O)c4ccc(N5CCC(N(C)C)CC5)cc4)n[nH]c3c2)c1 ?
Ans: > 1 µM

* * *

measured parameter: melting point

Please review the following examples before continuing.
{"columns": ["compound", "assay result"],
 "data": [
  ["COc1cc(CCc2nc(NC(=O)c3ccc(N4CCN(C)CC4)cc3)n[nH]2)cc(OC)c1 [18c]", "220.9 to 223.3 °C"],
  ["CCN1CCN(c2ccc(C(=O)Nc3n[nH]c4cc(-c5cc(F)cc(OC)c5)ccc34)cc2)CC1", "225.5 to 227 °C"]
]}

Q: Param item = COc1cc(F)cc(-c2ccc3c(NC(=O)c4ccc(N5CCN(C)CC5)cc4)n[nH]c3c2)c1 ; retrieve measured melting point.
Ans: 237.4 to 241.6 °C

Cited source: paper PMC6844396
